tested on: Erysiphe graminis f. sp. tritici; test: Test A: wheat powdery mildew, preventive spray on wheat seedlings, visual disease rating; details: 200 ppm; 100 = 100 % disease control, 0 = no disease control relative to controls
Hi, to clarify the labels: criterion met covers Test A disease control rating from 90% upward, criterion not met covers anything below 90%.

-- ask Does CN1OC(C)(c2cccnc2)CC1c1ccc(C(C)(C)C)cc1 (racemic) [Compound 7] have a reported Test A disease control rating of at least 90%?
-- reply criterion met

-- ask Does CN1OC(C)(c2cccnc2)CC1c1cccc(Cl)c1 (stereo not shown) [Compound 76] have a reported Test A disease control rating of at least 90%?
-- reply criterion not met

-- ask Does CN1OC(C)(c2cccnc2)CC1c1ccc(Cl)c(Cl)c1 (stereo not shown) [Compound 6] have a reported Test A disease control rating of at least 90%?
-- reply criterion met

-- ask Does CN1OC(C)(c2cccnc2)CC1c1ccccc1Br (stereo not shown) [Compound 66] have a reported Test A disease control rating of at least 90%?
-- reply criterion not met

-- ask Does CN1OC(C)(c2cccnc2)CC1c1ccccc1Cl (stereo not shown) [Compound 92] have a reported Test A disease control rating of at least 90%?
-- reply criterion not met

-- ask Does CN1OC(C)(c2cccnc2)CC1c1ccccc1F (stereo not shown) [Compound 78] have a reported Test A disease control rating of at least 90%?
-- reply criterion not met

-- ask Does CN1OC(C)(c2cccnc2)CC1c1cccc(I)c1 (mixture of isomers) have a reported Test A disease control rating of at least 90%?
-- reply criterion not met

-- ask Does CN1O[C@](C)(c2cccnc2)C[C@@H]1c1ccc(Cl)cc1 (relative stereo) have a reported Test A disease control rating of at least 90%?
-- reply criterion met

// provenance: patent US20090270407A1
